Target: EGFR(L858R/T790M) (Homo sapiens, UniProt P00533, L858R/T790M)
Construct: purchased from Carna (GST-a.a. 669-1210)
Sequence (P00533 669-1210 T790M/L858R): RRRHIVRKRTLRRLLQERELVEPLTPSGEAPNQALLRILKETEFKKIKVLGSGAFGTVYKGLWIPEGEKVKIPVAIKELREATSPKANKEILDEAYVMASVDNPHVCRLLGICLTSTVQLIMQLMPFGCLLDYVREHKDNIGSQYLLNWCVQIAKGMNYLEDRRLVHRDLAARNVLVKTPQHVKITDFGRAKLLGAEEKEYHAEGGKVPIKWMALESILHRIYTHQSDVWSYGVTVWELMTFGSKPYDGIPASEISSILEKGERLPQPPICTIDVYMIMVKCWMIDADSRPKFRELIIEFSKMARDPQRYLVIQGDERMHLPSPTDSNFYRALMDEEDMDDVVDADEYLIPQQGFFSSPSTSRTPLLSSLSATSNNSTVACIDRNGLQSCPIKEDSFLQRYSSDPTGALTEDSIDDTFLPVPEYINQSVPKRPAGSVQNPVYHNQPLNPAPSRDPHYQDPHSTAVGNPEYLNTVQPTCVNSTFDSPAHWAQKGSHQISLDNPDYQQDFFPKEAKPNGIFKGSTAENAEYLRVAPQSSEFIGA
Assay: EGFR biochemical assay (HTRF), IC50 determinations
Settings: EGFR (L858R/T790M) with 90 min pre-incubation; read-out: IC50 (μM) Column B
ASSAY_ENDPOINT: IC50 (µM)

Consider the following illustrative entries.
(Q) # query: IC50 | item "Cc1cccc2nc(NC(=O)c3ccnnc3)n([C@@H]3CCCCN(C(=O)C4=COCCO4)C3)c12" | system: EGFR(L858R/T790M) (Homo sapiens, UniProt P00533, L858R/T790M)
(A) 2.32

(Q) Check Cc1ncccc1C(=O)Nc1nc2cccc(C)c2n1C1CCCCN(C(=O)/C=C/CN(C)C)C1 (stereo not shown) too.
(A) 0.006

(Q) Input "CN(C)C/C=C/C(=O)N1CCC[C@@H](n2c(NC(=O)c3cccc(C(F)(F)F)c3)nc3cc(CO)ccc32)C1"
(A) 0.014

(Q) Same lookup for "C/C=C/C(=O)N1CCCC[C@@H](n2c(NC(=O)c3cc(C)nc(C)c3)nc3cc(CN4CC[C@H](OC)C4)ccc32)C1" , please.
(A) 0.01

(Q) For "C=CC(=O)N1CCC[C@@H](n2c(NC(=O)c3cccc(C(F)(F)F)c3)nc3cc(CN4CCC(F)(F)C4)ccc32)C1" then?
(A) 0.003

(Q) Same question, "C=C(CN1CCCCC1)C(=O)N1CCCC[C@@H](n2c(NC(=O)c3ccnnc3)nc3cccc(C)c32)C1" this time
(A) 0.013

(Q) // next record "C=CC(=O)N1CCCC[C@@H](n2c(NC(=O)c3ccccc3)nc3cccc(COCCOC)c32)C1"
(A) 0.006

(Q) // query: "C/C=C/C(=O)N1CCCC[C@@H](n2c(NC(=O)c3cc(C)nc(C)c3)nc3cc(CN4CC[C@H](F)C4)cc(C)c32)C1"
(A) 0.004

(a) C=CC(=O)N1CCCC[C@@H](n2c(NC(=O)c3ccccc3)nc3cccc(CN4CCS(=O)(=O)CC4)c32)C1
(b) Cc1cc(C(=O)Nc2nc3cccc(Cl)c3n2[C@@H]2CCCCN(C(=O)/C=C/CN(C)C(=O)OC(C)(C)C)C2)ccn1
(Q) For the pair a and b , which member has the lower IC50 number? When you have decided, please share the label of that item.
(A) a
(a: 0.001 µM, b: 5.84 µM)

(1) C=CC(=O)N1CCC[C@H](n2c(NC(=O)c3cccc(C(F)(F)F)c3)nc3cc(C)ccc32)C1
(2) C=CC(=O)N1CCCCC(n2c(NC(=O)c3ccccc3)nc3cccc(C(=O)N4CCS(=O)(=O)CC4)c32)C1 (stereo not shown)
(3) CC(C)Oc1cccc2nc(NC(=O)c3ccnnc3)n([C@@H]3CCCCN(C(=O)/C=C/CN(C)C)C3)c12
(4) C=CC(=O)N1CCCC(n2c(NC(=O)c3cccc(C(F)(F)F)c3)nc3c2CN(S(C)(=O)=O)CC3)C1 (stereo not shown)
(Q) List these items ordered by IC50, big to small. # list labels per requested ordering
(A) 4, 1, 2, 3
(4: 0.316 µM, 1: 0.071 µM, 2: 0.013 µM, 3: 0.003 µM)

(A) C=CC(=O)N1CCCC(n2c(NC(=O)c3cccc(C(F)(F)F)c3)nc3cc(C)ccc32)CC1 (stereo not shown)
(B) C/C=C/C(=O)N1CCCC[C@@H](n2c(NC(=O)c3cc(C)nc(C)c3)nc3cc(CN4CC[C@H](OC)C4)cc(C)c32)C1
(C) C=CC(=O)N1CCCC(n2c(NC(=O)c3cccc(C(F)(F)F)c3)nc3cnccc32)C1 (stereo not shown)
(Q) Ordering: ascending IC50. Please reply with the labels ordered as requested. Many thanks.
(A) B, C, A
(B: 0.004 µM, C: 0.137 µM, A: 0.38 µM)
